Biological target: T1, 4H1899-bN
T1 chain: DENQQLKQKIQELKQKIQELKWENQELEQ
Assay: two-hybrid library CCNG1;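 also: natural log of median RNA to DNA barcode read ratio; higher means stronger binding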
Reported interaction score is given for each of the following binders.

Here are 8 binders together with their reported answers.
binder="DENQQLEQKIQELEQKNQELKWEIQELKQ [4H1338-bN]" valuemeasured=-2.73
binder="DENQQLEQKIQELKQEIQELEWENQELKQ [4H1348-bN]" valuemeasured=-0.707
binder="DENQQLKQEIQELEQEIQELEWKNQELKQ [4H1544-bN]" valuemeasured=1.82
binder="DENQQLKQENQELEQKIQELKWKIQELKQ [4H1710-bN]" valuemeasured=0.0366
binder="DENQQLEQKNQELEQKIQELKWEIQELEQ [4H1449-bN]" valuemeasured=-0.773
binder="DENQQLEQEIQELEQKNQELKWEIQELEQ [4H1081-bN]" valuemeasured=-0.693
binder="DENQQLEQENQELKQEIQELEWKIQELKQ [4H1222-bN]" valuemeasured=-0.657
binder="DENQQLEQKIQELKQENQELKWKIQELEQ [4H1373-bN]" valuemeasured=-1.32

# get_value(readout='interaction score', item= DENQQLKQKIQELKQKIQELKWENQELEQ [4H1899-bN] )
-1.24

# get_value(readout='interaction score', item= DENQELEKEIEELERKIWELKKKNQELKR [4H1072-bH] )
1.84

Reference for the values: paper PMC10397247
